Experiment: qHTS assay to identify small molecule antagonists of the vitamin D receptor (VDR) signaling pathway - cell viability counter screen (AID 743225); note: nearly all actives have a fitted effect of over 50% in size
Conditions: VDR-bla HEK293T viability, CellTiter-Glo luminescence, 16 h; series mostly up to 61 µM
Source text: U.S. Tox21 Program National Center for Advancing Translational Sciences [NCATS] NIH Chemical Genomics Center [NCGC] U.S. Environmental Protection Agency [EPA] National Institutes of Environmental Health Sciences [NIEHS] National Toxicology Program [NTP] U.S. Food and Drug Administration [FDA] Tox21 Assay Overview: The vitamin D receptor (VDR), a member of nuclear hormone receptor superfamily, plays a critical role in calcium homeostasis and bone metabolism. […]
Inconclusive results are not listed. Activity calls are given as the source filed them. Calls come from the whole dose curve; as a rule, active = well fitted cell-killing curve with a large enough effect in the repeat runs; inconclusive = weak or mixed curves, or effect the other way; inactive = no such curve, though single readings can be large or run the other way.
In this exercise, the only acceptable responses are active, inactive

compound: C[n+]1cc2c3c(ccc2c2ccc4cc5c(cc4c21)OCO5)OCO3
answerLabel: active
//
compound: c1ccc(CSCc2ccccc2)cc1
answerLabel: inactive
//
compound: CC(C)OC(=O)c1cc2c(OCC(O)CNC(C)(C)C)cccc2[nH]1 (stereo not given)
answerLabel: inactive
//
compound: CCCCCCCCCOC(=O)c1ccc(O)cc1
answerLabel: active
//
compound: CCC1=C[C@@H]2CN(C1)Cc1c([nH]c3ccccc13)[C@@](C(=O)OC)(c1cc3c(cc1OC)N(C)[C@H]1[C@@](O)(C(=O)OC)[C@H](OC(C)=O)[C@]4(CC)C=CCN5CC[C@]31[C@@H]54)C2
answerLabel: inactive

Q) In this assay, the call recorded for "CC(C)c1ccc2c(c1)CC[C@H]1[C@](C)(CN)CCC[C@]21C" was what?
A) active

Q) # outcome recorded in this test, key = "Nc1ccccc1O"
A) inactive

Q) Per the assay record, what outcome was assigned to "O=C1c2ccccc2Cc2ccccc21" ?
A) inactive

Q) Hi team, can someone confirm the assay call for "COc1cccc2c1C(=O)c1c(O)c3c(c(O)c1C2=O)C[C@@](O)(C(=O)CO)C[C@@H]3O[C@H]1C[C@H](N)[C@H](O[C@@H]2CCCCO2)[C@H](C)O1" ?
A) inactive

Q) # lookup: test call for "CC1=C(/C=C/C(C)=C/C=C/C(C)=C/C=O)C(C)(C)CCC1"
A) active

Q) Recorded test call requested for "O=[N+]([O-])c1ccccc1Nc1ccccc1"
A) inactive

Q) What classification did "O=C(c1ccc(O)cc1O)c1ccc(O)cc1O" end up with in this test?
A) inactive

Q) Recorded test call requested for "O=c1[nH]cnc2nc[nH]c12"
A) inactive

Q) Check the results log: what was the call for "CC(=O)SC[C@@H](Cc1ccccc1)C(=O)NCC(=O)OCc1ccccc1" ?
A) inactive

Q) Entry "O=C(NOCC1CC1)c1ccc(F)c(F)c1Nc1ccc(I)cc1Cl" : call = ?
A) inactive

Q) GET /call?item= "Oc1cc2ccccc2c2ccccc12" returns the recorded outcome of this test.
A) active

Q) Which outcome did this test record for the compound "O=Cc1cc(O)ccc1Br" ?
A) inactive

Q) What call does the record list for CCCCCCCCCCCCCC[P+](CCCC)(CCCC)CCCC (tested in a mixture with another compound) ?
A) inactive

Q) Would you mind telling me which call this test gave "Cc1onc(-c2c(Cl)cccc2Cl)c1C(=O)N[C@@H]1C(=O)N2[C@@H]1SC(C)(C)[C@@H]2C(=O)O" ?
A) inactive

Q) What classification did "NNc1nc(-c2ccc(N)cc2)cs1" end up with in this test?
A) inactive

Q) Test call for this compound, please: "OCCN1CCN(CC/C=C2/c3ccccc3Sc3ccc(C(F)(F)F)cc32)CC1"
A) active

Q) GET /call?item= "Cc1[nH]nc2c1N=C(c1ccccc1Cl)c1cc([N+](=O)[O-])ccc1N2" returns the recorded outcome of this test.
A) active

Q) Hey, what did the test say about "CCCCCCCCCCCCCCCC(=O)OC[C@H](O)[C@H]1OC(=O)C(O)=C1O" ?
A) inactive

Q) What call does the record list for C=C(C)C(=O)OCC(O)COc1ccc(C(C)(C)c2ccc(OCC(O)COC(=O)C(=C)C)cc2)cc1 (stereo not given) ?
A) active

Q) State the result this test recorded for "COc1cc(-c2nc(NC(=O)c3cc4cc(C)cc(C)c4n3CC(=O)O)sc2CCC2CCCCC2)c(OC)cc1Cl" .
A) active
